The measured values listed here are drawn from PubChem BioAssay (NCI).

test: NCI Yeast Anticancer Drug Screen. Data for the rad50 strain (AID 155);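 further: 0% = growth of vehicle-only cultures of the same strain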; settings: S. cerevisiae rad50 strain growth inhibition; at 50.0 µM; stronger effect = higher value
The panel holds about 79,000 compounds, 15% with a hit somewhere; the sample as a whole holds those more often.
ASSAY READOUT: growth inhibition (%)

- COC(=Nc1cccc2ccccc12)Nc1cccc2ccccc12: 1.95
- O=C(Nc1ccc(NC(=O)Nc2cc(C(F)(F)F)ccc2Oc2ccc(Cl)c(Cl)c2)cc1)Nc1cc(C(F)(F)F)ccc1Oc1ccc(Cl)c(Cl)c1: -28.2
- O=C(O)/C=C\Sc1ccccc1C(=O)O: 2.05
- CSCCC(NC(=O)NS(=O)(=O)c1ccc(C)cc1)C(=O)O (centres undefined): -4.3
- CCC(C)C1NC(=S)N(c2ccccc2)C1=O (centres undefined): -8.65
- O=S(=O)(Nc1ccc(C(F)(F)F)cc1)c1ccc(F)cc1: -5.7
- CCOC([O-])=N/C(=N/[n+]1ccc(C)cc1)c1ccccc1: 8.35
- COc1cc2c3c(c1)-c1c(ccc(OC)c1Oc1nnnn1-c1ccccc1)CC3N(C)CC2 (centres undefined): 30.4
- O=c1cc(NCc2cccc([N+](=O)[O-])c2)[nH]c(=O)[nH]1: 0.1
- CNC(=O)c1c(-c2ccc(F)cc2)noc1C: -6.7
- COc1ccc(N)c(OC)c1: -30.6
- Nc1cccc(OCC2CCCN3CCCCC23)c1 (centres undefined): 20
- O=C(O)C(CCOc1ccccc1)CCOc1ccccc1: 0.7
- COc1ccccc1C(=O)N/N=C/c1ccccc1Cl: 4.25
- CCN(CC)C(=O)C1CCN(Cc2c[nH]c3ccccc23)CC1: -3.05
- CC1CCC(CC(N)=O)C1(C)C (centres undefined): 11.8
- [O-]/[N+](=C\c1cccc(O)c1)c1ccccc1: -1.75
- CC1=C(C#N)C(C)(C)c2ccccc21: 19.9
- COC(=O)CCNC(C(=O)O)C(C)(C)SCCC(=O)OC (centres undefined): -18.6
- NNc1c(F)c(F)c2c(F)c(F)c(F)c(F)c2c1F: 97.8
- O=C(C(=Cc1ccc(F)cc1)C(=O)c1ccccc1)c1ccccc1: 1.75
- c1ccc2c3c(ccc2c1)Oc1ccc2ccccc2c1C3CCC1c2c(ccc3ccccc23)Oc2ccc3ccccc3c21: -8.75
- O=C1OC2C3c4ccccc4C(c4c3ccc3ccccc43)C2O1 (centres undefined): 10.1
- Cc1nnc(N)c(C#N)c1C: -8.45

---

experiment: NCI Yeast Anticancer Drug Screen. Data for the bub3 strain (AID 167); details: S. cerevisiae bub3 mutant strain, at 50.0 µM, stronger effect = higher value
Compounds without any hit were thinned out: in the full panel of roughly 79,000, 15% have a hit.
ASSAY READOUT: growth inhibition (%)

• N#CC(CC(=O)c1ccccc1)c1ccccc1 (stereo unspecified) = -14.3
• CCOc1ccc(N=Nc2ccc3oc(=O)c(C(=O)Nc4ccc(OC)cc4)cc3c2)cc1 = 0.8
• Cc1cc(N=C2C=C(Nc3cc(C)on3)C(=O)c3ccccc32)no1 = -14.7
• CCOC(=O)/C(C#N)=C\Nc1ccc(C)cc1 = -12.1
• O=NNc1ccnc(-c2cc(NN=O)ccn2)c1 = -12.5
• CC(=O)Nc1ccc(N=NN(C)c2ccccc2)cc1 = 19.8
• O=C(O)C1C2C=CC(O2)C1C(=O)NCc1ccccn1 (stereo unspecified) = -37
• CCCCCCCCCCNC(=O)CCC(NC(=O)c1ccc(N(C)Cc2cnc3nc(N)nc(N)c3n2)cc1)C(=O)NCCCCCCCCCC (stereo unspecified) = -13.2
• CC(=O)CC1CCC(CC(C)=O)CC1 (stereo unspecified) = -4.1
• Cc1ccc(S(=O)(=O)CC(=O)NC(N)=O)cc1 = -1.15
• O=c1[nH][nH]c(=O)n2c1cc1oc(-c3ccccc3)cc12 = 23
